The origin of these recorded values is PubChem BioAssay.

TARGET_SYSTEM: Epidermal growth factor receptor (Homo sapiens)
ASSAY_EXPLANATION: EGFR binders on small-molecule microarrays, primary screen, biochemical, small-molecule microarray, 635 nm fluorescence (AID 1104);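 also: score merges 667 nm emission intensity with spot signal to noise over triplicate slides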
PROTOCOL_CONDITIONS: EGFR binding, higher = more signal

COMPOUND	TARGET_SYSTEM	composite z-score
C[C@]1(C(=O)NCC(F)(F)F)c2ccccc2C(=O)N(Cc2ccc(OC(F)(F)F)cc2)[C@H]1c1ccc(CO)cc1	Epidermal growth factor receptor (Homo sapiens)	0.179
C=CCC(OC(C)=O)[C@@H]1[C@@H](N(Cc2ccc(-c3ccccc3)cc2)C(=O)c2ccc(C)cc2)c2cc(OCCCO)ccc2N1C(=O)c1ccc2ccccc2c1 (some centres not stated)	Epidermal growth factor receptor (Homo sapiens)	-0.0575
COC(=O)[C@]1(CO)N=C(c2ccc(OCCCO)cc2)O[C@@H]1c1ccccc1CN=[N+]=[N-]	Epidermal growth factor receptor (Homo sapiens)	-0.237
CCN(CC)c1ccc(N2CC=CC34O[C@@H]5C=CCOC(=O)[C@@H]5[C@H]3C(=O)N(CCCO)[C@@H]4C2=O)cc1 (some centres not stated)	Epidermal growth factor receptor (Homo sapiens)	-0.853
CC(C)C[C@@H]1NC(=O)[C@H]2C[C@@H](C(=O)NCCCCCCNC(=O)CS)[C@@H](c3ccc(O)cc3)N2C1=O	Epidermal growth factor receptor (Homo sapiens)	1.08
COCCOC(=O)N1C(=O)[C@@]2(c3cc(C#Cc4ccc(OC)cc4)ccc31)[C@H](C(=O)N1CCCCCCC1)[C@H]1C(=O)O[C@H](c3ccccc3)[C@H](c3ccccc3)N1[C@@H]2c1ccccc1OCCO	Epidermal growth factor receptor (Homo sapiens)	1.07
CCC[C@@H]1C=C(C(=O)OCC)[C@H](c2ccccc2)N1S(=O)(=O)c1ccc(C)cc1	Epidermal growth factor receptor (Homo sapiens)	0.623
